# Test system: Hep3B
# assay_notes: Antiproliferative MTS assay, Hep3B
# Assay type: cell-based
# test_context: Homo sapiens, 72 h
compounds and their reported IC50
The reply should contain only the number, in µM.

Sample records with IC50:
compound: CC(C)=CCC/C(C)=C/CC/C(C)=C/CC/C(C)=C/C[C@@H](O)/C=C(\C)CC/C=C(\C)CC/C=C(\C)CCC=C(C)C
IC50 [µM]: 21.3
//
compound: CC(=O)O[C@H]1C(=O)[C@@]2(C)[C@H]([C@H](OC(=O)c3ccccc3)[C@]3(O)C[C@H](OC(=O)[C@H](O)[C@@H](NC(=O)c4ccccc4)c4ccccc4)C(C)=C1C3(C)C)[C@]1(OC(C)=O)CO[C@@H]1C[C@@H]2O [Paclitaxel, reference compound]
IC50 [µM]: 0.008
//
compound: CC(C)=CCC/C(C)=C/CC/C(C)=C/CC/C(C)=C/CC/C(C)=C\CC/C(C)=C\CC/C(C)=C\CC/C(C)=C\CC/C(C)=C\CC/C(C)=C\CC/C(C)=C\CC/C(C)=C\CC/C(C)=C\CO [Compound 3, (Z9,E3,ω)-tridecaprenol]
IC50 [µM]: 69.7

Turning now to a further record.
IC50 in this record for CC(C)=CCC/C(C)=C/CC/C(C)=C/CC/C(C)=C/CC/C(C)=C\CC/C(C)=C\CC/C(C)=C\CC/C(C)=C\CC/C(C)=C\CC/C(C)=C\CC/C(C)=C\CC/C(C)=C\CO [Compound 2, (Z8,E3,ω)-dodecaprenol] : 50.3

Sourced from paper PMC6651038
